- Tested on: mice, LPC-1 plasma cell tumor ip, median survival T/C
- Procedure details: NCI In Vivo Anticancer Drug Screen. Data for tumor model Lieberman Plasma Cell No. 1 (LPC-1) (intraperitoneal) in unknown mice
- Particulars: endpoint: median survival time; dose: 180.0 mg/kg/injection; schedule: Q01DX028 (sc); vehicle: carboxymethylcellulose (CMC); higher = longer survival
Toxic doses and inconclusive results are not listed.
Measured endpoint: T/C

CC(=O)[C@H]1CC[C@H]2[C@@H]3C[C@H](C)C4=CC(=O)CC[C@]4(C)[C@H]3C(=O)C[C@]12C	100 % of control
CS(=O)(=O)OCCN(CCOS(C)(=O)=O)c1ccc(C(=O)O)cc1	105 % of control
O=CN(O)CC(=O)O	90 % of control

Reported T/C, compound `CN(C)c1ccc(/C=C/c2ccnc3ccccc23)cc1` : ____
95 % of control

The measured values listed here are drawn from PubChem BioAssay AID344.
